B1: ZNF24 (parent)
chain: YGETCFPKGRFERKRNPSRKKQHI

# Variants of: B1
# runDescription: protein stability index of a GFP-peptide fusion (GPS, HEK-293T) (PSI 1-6); higher = more stable;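 note: lentivirally expressed fusions sorted by FACS into six bins by GFP to DsRed ratio, PSI derived from sequencing read proportions per bin multiplied by bin number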
# measurementSetup: c terminus: a fixed tail appended
Label met when protein stability index >= 3; otherwise not met.

Observe how each entry below is paired with its result.
E12V :: not met
T4M :: not met
P7V :: met
H23Y :: not met
K20F :: not met

Query: Does F11K have a reported protein stability index of at least 3?
Result: met

Query: Does E3A have a reported protein stability index of at least 3?
Result: not met

Query: Does F6H have a reported protein stability index of at least 3?
Result: met

Query: Does K20Q have a reported protein stability index of at least 3?
Result: not met

Query: Does R19L have a reported protein stability index of at least 3?
Result: not met

Query: Does E12P have a reported protein stability index of at least 3?
Result: met

Query: Does G9H have a reported protein stability index of at least 3?
Result: not met

Query: Does C5Q have a reported protein stability index of at least 3?
Result: met

Query: Does E12R have a reported protein stability index of at least 3?
Result: met

Query: Does C5P have a reported protein stability index of at least 3?
Result: met

Query: Does F6Q have a reported protein stability index of at least 3?
Result: met

Query: Does Q22P have a reported protein stability index of at least 3?
Result: not met

Query: Does R13Q have a reported protein stability index of at least 3?
Result: not met

Query: Does R10D have a reported protein stability index of at least 3?
Result: met

Query: Does H23M have a reported protein stability index of at least 3?
Result: met

Query: Does K14D have a reported protein stability index of at least 3?
Result: met

Query: Does G9T have a reported protein stability index of at least 3?
Result: not met

Query: Does E3M have a reported protein stability index of at least 3?
Result: met
